# Tested on: Abutilon theophrasti (ABUTH)
# assay-details: Herbicidal efficacy, application post-emergence
# Type: in vivo
# Parameters: key: 5 = total damage to plant; 0 = no damage to plant
# condition-parameters: 250 g/ha, evaluated visually after 13 days, scale 0-5
measurement-label: phytotoxicity to the plant, ABUTH
One number for each entry.

• Cc1c(Br)c(C2CN(C)C(=O)C2C(=O)Nc2ccc(F)cc2F)nn1C(F)F (centres unmarked) [Compound 59] = 0

Fill in phytotoxicity to the plant, ABUTH for each of the 4 compounds listed.
1. Cc1cc(C2CN(C)C(=O)C2C(=O)Nc2ccc(F)cc2F)nn1C(F)F (centres unmarked) [Compound 57]
2. CCc1cc(C2CN(C)C(=O)C2C(=O)Nc2cccc(F)c2C)nn1C(F)F (centres unmarked) [Compound 10]
3. CCc1cc(C2CN(C)C(=S)C2C(=O)Nc2ccc(F)cc2F)nn1C(F)F (centres unmarked) [Compound 62]
4. CCc1cc(C2CN(C)C(=S)C2C(=O)Nc2cccc(F)c2F)nn1C(F)F (centres unmarked) [Compound 38]

Marked response:
1
0
1
0
